# Tested on: MX-1 breast xenograft, intrarenal, nude mice, tumor weight
# test: NCI In Vivo Anticancer Drug Screen. Data for tumor model Human Mammary Carcinoma MX-1 Xenograft (intrarenal inoculation) in NU/NU BALB/C (nude) mice
# conditions: endpoint: mean tumor weight change; dose: 150.0 mg/kg/injection; schedule: Q04DX003 (ip); vehicle: Klucel (hydroxypropylcellulose) (HPC); higher = larger tumour
Inconclusive results are not listed.
assay.endpoint: T/C

Guide cases for T/C, answers given:
[[record]]
compound = "O=c1[nH]cnc2c1cnn2CN1CCOCC1"
assay_target = "MX-1 breast xenograft, intrarenal, nude mice, tumor weight"
obs_value = "96 % of control"

[[record]]
compound = "COC(=O)NC1C(C)OC(OC2C/C=C(/C)C3C=CC4C(OC5CC(OC6CC(O)C(OC7CC(O)C(OC)C(C)O7)C(C)O6)C(O)C(C)O5)C(C)CC(C)C4C3(C)/C(O)=C3\\C(=O)OC4(CC(C)C(CO)=CC4/C=C\\2C)C3=O)CC1(C)[N+](=O)[O-] (centres undefined)"
assay_target = "MX-1 breast xenograft, intrarenal, nude mice, tumor weight"
obs_value = "108 % of control"

[[record]]
compound = "COC(=O)C1(F)C(=O)NC(=O)NC1OC (centres undefined)"
assay_target = "MX-1 breast xenograft, intrarenal, nude mice, tumor weight"
obs_value = "85 % of control"

[[record]]
compound = "O=C(NC(Cc1ccc(I)cc1)C(=O)O)c1cccc(Br)c1 (centres undefined)"
assay_target = "MX-1 breast xenograft, intrarenal, nude mice, tumor weight"
obs_value = "57 % of control"


Per the records, this compound ( CCOC(=O)/C=C/C(=O)N1CCN(C(=O)/C=C/C(=O)OCC)C(C)C1 (centres undefined) ) has T/C equal to 103 % of control

Field T/C (entry `C[C@]12CCC(=O)C(O)=C1CC[C@@H]1[C@@H]2CC[C@]2(C)C(=O)CC[C@@H]12` ) reads 101 % of control

Looking up Cc1ccc2c(c1)C1(C)OC(C=CC1=O)O2 (centres undefined) , I see its T/C listed as 94 % of control

Query `Nc1c(/C=C/c2cc3cc(C4=NCCN4)ccc3o2)[nH]c2cc(C3=NCCN3)ccc12` yields T/C of 40 % of control

Reported T/C ( CC(C)CC(=O)NC(C(=O)NC(C(=O)NC(CC(C)C)C(O)CC(=O)NC(C)C(=O)NC(CC(C)C)C(O)CC(=O)O)C(C)C)C(C)C (centres undefined) ) = 85 % of control

* * *

# Tested on: MX-1 breast xenograft, intrarenal, nude mice, tumor weight
# test: NCI In Vivo Anticancer Drug Screen. Data for tumor model Human Mammary Carcinoma MX-1 Xenograft (intrarenal inoculation) in NU/NU BALB/C (nude) mice
# conditions: endpoint: mean tumor weight change; dose: 600.0 mg/kg/injection; schedule: Q04DX003 (ip); vehicle: saline with Tween-80; higher = larger tumour
Records with an inconclusive call do not appear.
assay.endpoint: T/C

T/C reading for `O=C(NNC(=O)c1cccc(C(=O)NNC(=O)c2ccc(Cl)c(Cl)c2)n1)c1ccc(Cl)c(Cl)c1` : 65 % of control

* * *

# Tested on: MX-1 breast xenograft, intrarenal, nude mice, tumor weight
# test: NCI In Vivo Anticancer Drug Screen. Data for tumor model Human Mammary Carcinoma MX-1 Xenograft (intrarenal inoculation) in NU/NU BALB/C (nude) mice
# conditions: endpoint: mean tumor weight change; dose: 300.0 mg/kg/injection; schedule: Q04DX003 (sc); vehicle: Klucel (hydroxypropylcellulose) (HPC); higher = larger tumour
Records with an inconclusive call do not appear.
assay.endpoint: T/C

Sample records with T/C:
[[record]]
compound = "COC1C(CO)OC(n2cnc3c(=S)nc(N)[nH]c32)C1O (stereo not drawn)"
assay_target = "MX-1 breast xenograft, intrarenal, nude mice, tumor weight"
obs_value = "48 % of control"

[[record]]
compound = "O=S1(=O)CS(=O)(=O)OCCO1"
assay_target = "MX-1 breast xenograft, intrarenal, nude mice, tumor weight"
obs_value = "11 % of control"


Lab note: next compound to report on.
So for `CC(C)NC(=O)N(CCCCBr)N=O` , the logged T/C turned out to be -100 % of control

* * *

# Test system: MX-1 breast xenograft, intrarenal, nude mice, tumor weight
# test: NCI In Vivo Anticancer Drug Screen. Data for tumor model Human Mammary Carcinoma MX-1 Xenograft (intrarenal inoculation) in NU/NU BALB/C (nude) mice
# conditions: endpoint: mean tumor weight change; dose: 300.0 mg/kg/injection; schedule: Q04DX003 (ip); vehicle: saline with Tween-80; higher = larger tumour
Inconclusive results are not listed.
assay.endpoint: T/C

Below, 3 molecules whose answers are already recorded.
[[record]]
molecule = "CCCCCCCCCCCCCCCCCCOCC(CO)OC (centres undefined)"
assay_endpoint = "T/C"
obs_value = "93 % of control"

[[record]]
molecule = "CCCCNP1(NCCCC)=NP(NCCCC)(NCCCC)=NP(NCCCC)(NCCCC)=NP(NCCCC)(NCCCC)=N1"
assay_endpoint = "T/C"
obs_value = "73 % of control"

[[record]]
molecule = "COc1ccc(C[C@@H]2NC[C@@H](O)[C@@H]2OC(C)=O)cc1"
assay_endpoint = "T/C"
obs_value = "110 % of control"


T/C for COc1cc2oc3c(C)c(=O)cc4oc(-c5ccccc5)cc(c2c2c1CCC(c1ccccc1)O2)c43 (centres undefined) is 52 % of control

T/C reported for this molecule COC1=C(OC)C(=O)C(SC/C=C(\C)CCCC(C)CCCC(C)CCCC(C)C)=CC1=O (centres undefined) : 220 % of control

Given item `O=C(NNC(=O)c1cccc(C(=O)NNC(=O)c2ccc(Cl)c(Cl)c2)n1)c1ccc(Cl)c(Cl)c1` , the value recorded as its T/C is 64 % of control

Entry `O=C(Nc1cc(Cl)ccc1C(=O)O)c1cccc(C[n+]2ccccc2)c1` ; T/C = 109 % of control

Entry `S=C(NCNC(=S)c1ccncc1)c1ccncc1` , T/C reported as 97 % of control

Lab note: measured T/C of `Nc1ccc2ccc(N)cc2c1` was 65 % of control

Notebook: `Cc1cc2c(C(C)C)c(O)c(O)c(C=NCCO)c2c(O)c1-c1c(C)cc2c(C(C)C)c(O)c(O)c(C=NCCO)c2c1O` , T/C read as 58 % of control

So, O=C1c2ccccc2C(Cl)(c2ccc(Cl)cc2)c2ccc(Cl)cc21 (centres undefined) ? Its T/C was 60 % of control

`CN=C(N)N/N=C(\C)c1ccc2sc3ccc(/C(C)=N/NC(N)=NC)cc3c2c1` yielded T/C of 59 % of control

Given item `c1ccc(-c2cc3cc4ccccc4cn3c2)cc1` , the value recorded as its T/C is 108 % of control

Lab book: T/C of `CNC(=O)Sc1ccc(C)c(N(C)C)c1` noted as 44 % of control

* * *

# Test system: MX-1 breast xenograft, intrarenal, nude mice, tumor weight
# test: NCI In Vivo Anticancer Drug Screen. Data for tumor model Human Mammary Carcinoma MX-1 Xenograft (intrarenal inoculation) in NU/NU BALB/C (nude) mice
# conditions: endpoint: mean tumor weight change; dose: 50.0 mg/kg/injection; schedule: Q04DX003 (ip); vehicle: saline; higher = larger tumour
Records with an inconclusive call do not appear.
assay.endpoint: T/C

[[record]]
compound = "CN(C)CCCN=c1c2ccccc2n(C)c2[nH]c(=O)n(C)c(=O)c12"
assay_endpoint = "T/C"
obs_value = "82 % of control"

[[record]]
compound = "Cc1ccc(C(=O)Nc2ccc(S(=O)(=O)O)c3cc(S(=O)(=O)O)cc(S(=O)(=O)O)c23)cc1NC(=O)c1cccc(NC(=O)Nc2cccc(C(=O)Nc3cc(C(=O)Nc4ccc(S(=O)(=O)O)c5cc(S(=O)(=O)O)cc(S(=O)(=O)O)c45)ccc3C)c2)c1"
assay_endpoint = "T/C"
obs_value = "77 % of control"

[[record]]
compound = "NCCSC(C[N+](=O)[O-])c1ccccc1Cl (configuration not stated)"
assay_endpoint = "T/C"
obs_value = "86 % of control"

[[record]]
compound = "CC(=O)Nc1ccc(Nc2ccc(C(=C3C=CC(=[N+](C)CCC#N)C=C3)c3ccc(N(C)CCC#N)cc3)cc2)cc1"
assay_endpoint = "T/C"
obs_value = "63 % of control"

[[record]]
compound = "COc1ccc(C=C(C(=O)CCN(C)C)C(=O)CCN(C)C)cc1"
assay_endpoint = "T/C"
obs_value = "93 % of control"


Param item: `O=C(Nc1cccnc1)c1ccc([N+](=O)[O-])s1` ; param system: MX-1 breast xenograft, intrarenal, nude mice, tumor weight; output T/C: 92 % of control

Summary: O=C(O)CC1C(=O)OC2C3COC(=O)c4cc(O)c(O)c(O)c4-c4c(cc(O)c(O)c4O)C(=O)OC2C(OC(=O)c2cc(O)c(O)c4c2C1C(O)C(=O)O4)C(OC(=O)c1cc(O)c(O)c(O)c1)O3 (configuration not stated) , MX-1 breast xenograft, intrarenal, nude mice, tumor weight, T/C = 99 % of control

The values you see were collected from PubChem BioAssay AID298.
